Cited source: ChEMBL document CHEMBL3988442

ASSAYED_SYSTEM: AMP-activated protein kinase, AMPK (Homo sapiens) (UniProt P54646+O43741+P54619+Q9UGJ0+Q9Y478+Q13131+Q9UGI9)
PROTOCOL_SUMMARY: AMP-dependent Kinase enzyme assay. An in vitro enzyme assay that detects ADP turnover that is directly proportional to AMPK activity. This uses naive AMPK that is activated during the assay with MK-8722
Type: functional
Design: scale not given: direction of the effect not stated beside the values
SETUP_CONDITIONS: 30 µM
PROPERTY_MEASURED: Percent Effect (%)
Reply numerically in %, unit not repeated.

{"MOLECULE": "CN1CCN(C(=O)c2ccc(=O)n(C)c2)Cc2ccccc21", "UNIT_OF_MEASURE": "%", "Percent Effect": -7.07}
{"MOLECULE": "CC(=O)N1CCNCC1c1cccc(C(=O)N(C)C)c1 (stereo unspecified)", "UNIT_OF_MEASURE": "%", "Percent Effect": 10.3}
{"MOLECULE": "Cc1cc(C(=O)N2CCC(c3nccn3CCCN(C)C)CC2)no1", "UNIT_OF_MEASURE": "%", "Percent Effect": -2.51}
{"MOLECULE": "CCCc1nc(C)c(C(=O)NS(=O)(=O)c2ccc(C#N)cc2)s1", "UNIT_OF_MEASURE": "%", "Percent Effect": -2.15}
{"MOLECULE": "CCCNC(=O)Nc1cc2c(cc1SC)OCCO2", "UNIT_OF_MEASURE": "%", "Percent Effect": -3.48}

Next molecule, please.
What value of Percent Effect has been recorded for this entry: CCc1nnsc1C(=O)NCCn1nc2ccccn2c1=O
-7.77

* * *

# Percent Effect annotations
ASSAYED_SYSTEM: Sialic acid-binding Ig-like lectin 9 (Homo sapiens) (UniProt Q9Y336)
Sequence (Q9Y336 whole entry): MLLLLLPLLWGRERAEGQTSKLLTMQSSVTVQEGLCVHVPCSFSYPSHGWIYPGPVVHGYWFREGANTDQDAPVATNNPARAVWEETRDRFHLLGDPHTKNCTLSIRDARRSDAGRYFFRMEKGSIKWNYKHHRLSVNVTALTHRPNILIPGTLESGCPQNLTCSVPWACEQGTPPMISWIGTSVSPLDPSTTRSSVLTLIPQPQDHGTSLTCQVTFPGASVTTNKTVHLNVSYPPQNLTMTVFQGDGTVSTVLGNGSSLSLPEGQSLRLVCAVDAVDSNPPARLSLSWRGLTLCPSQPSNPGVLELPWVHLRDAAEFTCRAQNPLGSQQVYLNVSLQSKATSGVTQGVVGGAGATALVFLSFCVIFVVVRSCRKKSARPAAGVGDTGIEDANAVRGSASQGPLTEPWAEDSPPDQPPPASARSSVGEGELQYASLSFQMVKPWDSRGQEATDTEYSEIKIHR
PROTOCOL_SUMMARY: Hs-Siglec9 ALPHAscreen SOP 20170721
Set-up: scale not given: direction of the effect not stated beside the values
SETUP_CONDITIONS: 10 µM
Form entry: value (%) — number only.

{"COMPOUND": "CN(Cc1ccsc1)C(=O)c1cccc(NS(C)(=O)=O)c1", "UNIT_OF_MEASURE": "%", "Percent Effect": 10.4}
{"COMPOUND": "Cn1cnnc1CNC(=O)Nc1cc(C(F)(F)F)c[nH]c1=O", "UNIT_OF_MEASURE": "%", "Percent Effect": 8.28}

Recorded Percent Effect for CN1CCCN(c2nccc(-c3c[nH]nc3C3CCCCC3)n2)CC1 , please?
-4.76

Requested field: Percent Effect. Item: Cc1cc(C)n(CC2CCCN2CC(=O)N(C)Cc2cnn(C)c2)n1 (stereo unspecified)
3.9

I'd like to know its Percent Effect. The compound in question is Cc1ccc(-n2nnc(C(=O)NS(C)(=O)=O)c2C2CC2)cc1
0.772

# get_value(readout='Percent Effect', item= CCS(=O)(=O)c1ccccc1N1CCC(NC(C)=O)CC1 )
2.67

* * *

// reported Percent Effect per item
System: Trypanosoma cruzi
PROTOCOL_SUMMARY: Trypanosoma cruzi phosphomannomutase and mannose-1-phosphate guanylyltransferase assay
Assay type: functional
Set-up: scale not given: direction of the effect not stated beside the values
SETUP_CONDITIONS: 10 µM
Dear colleague, please send the value followed by its unit.

Some solved cases for reference:
{"COMPOUND": "Cc1ccc(C(=O)N2Cc3c(CN4CCCCC4)nn(C)c3C2)cc1C", "PROPERTY_MEASURED": "Percent Effect", "RESULT": "-3.02%"}
{"COMPOUND": "Cc1cccc(CCC(=O)N2CCOCC2c2c(C)n[nH]c2C)c1 (stereo unspecified)", "PROPERTY_MEASURED": "Percent Effect", "RESULT": "-3.33%"}
{"COMPOUND": "O=C(Cc1ccccc1)N1CCC2(CC(=O)N(c3cccc(F)c3)C2)C1 (stereo unspecified)", "PROPERTY_MEASURED": "Percent Effect", "RESULT": "-1.86%"}
{"COMPOUND": "Cc1nn(C)c2c(NCc3cccnc3)nc(C3CC3)nc12", "PROPERTY_MEASURED": "Percent Effect", "RESULT": "5.61%"}
{"COMPOUND": "CCn1cc(Br)c(C(=O)NCc2cnn(C)c2)n1", "PROPERTY_MEASURED": "Percent Effect", "RESULT": "6.79%"}

Next up:
What value of measured Percent Effect is listed for Cc1ccc(NC2CCN(C(=O)c3ccc(Cl)o3)CC2)nn1 ?
-6.01%
